Tested system: T1, Human CD73 ECD (human, UniProt P21589 27-549)
T1 sequence: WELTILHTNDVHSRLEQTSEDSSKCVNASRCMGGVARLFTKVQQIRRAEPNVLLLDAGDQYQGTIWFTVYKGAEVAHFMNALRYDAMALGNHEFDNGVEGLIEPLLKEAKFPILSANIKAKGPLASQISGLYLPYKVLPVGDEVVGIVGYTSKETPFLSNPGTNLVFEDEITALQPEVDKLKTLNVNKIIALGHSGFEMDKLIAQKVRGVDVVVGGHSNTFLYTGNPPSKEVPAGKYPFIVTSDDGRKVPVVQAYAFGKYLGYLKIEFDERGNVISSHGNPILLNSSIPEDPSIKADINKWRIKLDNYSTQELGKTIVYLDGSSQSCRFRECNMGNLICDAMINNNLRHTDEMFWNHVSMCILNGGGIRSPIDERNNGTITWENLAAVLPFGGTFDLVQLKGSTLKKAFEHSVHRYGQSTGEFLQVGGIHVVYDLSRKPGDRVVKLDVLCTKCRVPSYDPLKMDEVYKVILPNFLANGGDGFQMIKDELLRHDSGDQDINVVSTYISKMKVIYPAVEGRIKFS
Assay protocol: cell-based or functional assay
Endpoint label: Enzyme Inhibition, rCD73, 1/EC50 (nM) (nM⁻¹)
Numbers only, in nM⁻¹.

Return reported Enzyme Inhibition, rCD73, 1/EC50 (nM); argument: CD730021 (antibody, V domains shown, IgG1-TM format; also called CD730021 antibody) VH: QVQLQESGPGLVRPSETLSLTCTVSGGSISSSSYYWAWVRQSPGKGLEWIGNIYYRGSTYYNPSLKSRVTMSVDMSKHQFSLKLSSLNAADTAVYYCASLYSGTYVFDYWGRGTLVTVSS VL: QSVLTQPPSASGTPGQRVTISCSGSRPNIGGNTVNWYQQLPGAAPKLLIYSNSQRPSGVPDRFSGSKYGTSASLAISGLQSDDEADYYCGTWDDSLNGPVFGRGTKLTVL
0.0011

Return reported Enzyme Inhibition, rCD73, 1/EC50 (nM); argument: CD730042 (antibody, V domains shown, IgG1-TM format; also called CD730042 antibody) VH: GVQLVQSGGGLVQPGGSLRLSCAASGFTFSSYGMHWVRQAPGKGLEWVAVISYDGSIKYYADSVKGRFTISRDDSKNALYLQMNSLRAEDTAVYYCSTLSGSYGYFDYWGRGTLVTVSS VL: QSVLTQPASVSGSPGQSITISCAGTSSDVGGYNYVSWYQQHPGKAPKLMIYEGSKRPSGVSNRFSGSKSGNTASLTISGLQAEDEADYYCSSYTTRSTRVFGGGTKLTVL
0

Return reported Enzyme Inhibition, rCD73, 1/EC50 (nM); argument: CD730069 (antibody, V domains shown) VH: EVQLLESGGGLVQPGGSLRLSCAASGFTFSEYQMGWVRQAPGKGLEWVSYIRSSGGQTIYADSVKGRFTISRDNSKNTLYLQMNSLRAEDTAVYYCARRTYSSGWHIDYWGQGTLVTVSS VL: DIQMTQSPDSLSASVGDRVTITCRASQSISRYLNWYQQKPGKAPKLLIYGASSLQSGVPSRFSGSGSGTDFSLTISSLQLEDFATYYCQQSYRTPLTFGGGTKVEIQ
0.038

Return reported Enzyme Inhibition, rCD73, 1/EC50 (nM); argument: CD730068 (antibody, V domains shown) VH: EVQLLESGGGLVQPGGSLRLSCAASGFTFSNYIMGWVRQAPGKGLEWVSSISSSGGATIYADSVKGRFTISRDNSKNTLYLQMNSLRAEDMAVYYCAKDHLGGHGMDVWGQGTTVTVSS VL: DIQMTQSPSSLSASVGDRVTITCRASQDISNYLAWFQQKPGKAPKSLIFAASSLESGVPSKFSGSGSGTDFTLTISSLQPEDSATYYCQQYNSYPLTFGGGTKVEIK
0

Consider the following items and state reported Enzyme Inhibition, rCD73, 1/EC50 (nM) for each.
1. CD730008 (antibody, IgG1, V domains shown, IgG1-TM format; also called CD730008 antibody) VH: EVQLLETGGGLVQPGGSLRLSCAASGFTFSSYAMSWVRQAPGKGLEWVSAISGSGGSTYYADSVKGRFTISRDNSKNTLYLQMNSLRAEDTAVYYCARGNYGNLDHWGKGTLVTVSS VL: QSVLTQPPSVSVSPGQTASITCSGDKVGDKYASWYQQKPGQSPVLVIYQDRKRPSGIPERFSGSNSGNTATLTISGTQPMDEADYYCQAWDSSHWVFGGGTKLTVL
2. CD730047 (antibody, V domains shown, IgG1-TM format; also called CD730047 antibody) VH: EVQLVQSGGGVVQPGRSLRLSCAASGFTFSSYGMHWVRQAPGKGLEWVAVISYDGSIKYYADSVKGRFAISRDNAKNTLYLQMNSLRREDTAMYYCASGLTGVAGALGVWGRGTLVTVSS VL: QSVLTQPPSASGAPGQRVTISCSGSSSNIGSNTVNWYQRLPGAAPQLLIYNNDQRPSGIPDRFSGSKSGTSGSLVISGLQSEDEADYYCAAWDDSLSGNVFGTGTKVTVL

1. 0
2. 0.001
